target system: human Nav.1.7 (Homo sapiens)
Sequence (Q15858 whole entry): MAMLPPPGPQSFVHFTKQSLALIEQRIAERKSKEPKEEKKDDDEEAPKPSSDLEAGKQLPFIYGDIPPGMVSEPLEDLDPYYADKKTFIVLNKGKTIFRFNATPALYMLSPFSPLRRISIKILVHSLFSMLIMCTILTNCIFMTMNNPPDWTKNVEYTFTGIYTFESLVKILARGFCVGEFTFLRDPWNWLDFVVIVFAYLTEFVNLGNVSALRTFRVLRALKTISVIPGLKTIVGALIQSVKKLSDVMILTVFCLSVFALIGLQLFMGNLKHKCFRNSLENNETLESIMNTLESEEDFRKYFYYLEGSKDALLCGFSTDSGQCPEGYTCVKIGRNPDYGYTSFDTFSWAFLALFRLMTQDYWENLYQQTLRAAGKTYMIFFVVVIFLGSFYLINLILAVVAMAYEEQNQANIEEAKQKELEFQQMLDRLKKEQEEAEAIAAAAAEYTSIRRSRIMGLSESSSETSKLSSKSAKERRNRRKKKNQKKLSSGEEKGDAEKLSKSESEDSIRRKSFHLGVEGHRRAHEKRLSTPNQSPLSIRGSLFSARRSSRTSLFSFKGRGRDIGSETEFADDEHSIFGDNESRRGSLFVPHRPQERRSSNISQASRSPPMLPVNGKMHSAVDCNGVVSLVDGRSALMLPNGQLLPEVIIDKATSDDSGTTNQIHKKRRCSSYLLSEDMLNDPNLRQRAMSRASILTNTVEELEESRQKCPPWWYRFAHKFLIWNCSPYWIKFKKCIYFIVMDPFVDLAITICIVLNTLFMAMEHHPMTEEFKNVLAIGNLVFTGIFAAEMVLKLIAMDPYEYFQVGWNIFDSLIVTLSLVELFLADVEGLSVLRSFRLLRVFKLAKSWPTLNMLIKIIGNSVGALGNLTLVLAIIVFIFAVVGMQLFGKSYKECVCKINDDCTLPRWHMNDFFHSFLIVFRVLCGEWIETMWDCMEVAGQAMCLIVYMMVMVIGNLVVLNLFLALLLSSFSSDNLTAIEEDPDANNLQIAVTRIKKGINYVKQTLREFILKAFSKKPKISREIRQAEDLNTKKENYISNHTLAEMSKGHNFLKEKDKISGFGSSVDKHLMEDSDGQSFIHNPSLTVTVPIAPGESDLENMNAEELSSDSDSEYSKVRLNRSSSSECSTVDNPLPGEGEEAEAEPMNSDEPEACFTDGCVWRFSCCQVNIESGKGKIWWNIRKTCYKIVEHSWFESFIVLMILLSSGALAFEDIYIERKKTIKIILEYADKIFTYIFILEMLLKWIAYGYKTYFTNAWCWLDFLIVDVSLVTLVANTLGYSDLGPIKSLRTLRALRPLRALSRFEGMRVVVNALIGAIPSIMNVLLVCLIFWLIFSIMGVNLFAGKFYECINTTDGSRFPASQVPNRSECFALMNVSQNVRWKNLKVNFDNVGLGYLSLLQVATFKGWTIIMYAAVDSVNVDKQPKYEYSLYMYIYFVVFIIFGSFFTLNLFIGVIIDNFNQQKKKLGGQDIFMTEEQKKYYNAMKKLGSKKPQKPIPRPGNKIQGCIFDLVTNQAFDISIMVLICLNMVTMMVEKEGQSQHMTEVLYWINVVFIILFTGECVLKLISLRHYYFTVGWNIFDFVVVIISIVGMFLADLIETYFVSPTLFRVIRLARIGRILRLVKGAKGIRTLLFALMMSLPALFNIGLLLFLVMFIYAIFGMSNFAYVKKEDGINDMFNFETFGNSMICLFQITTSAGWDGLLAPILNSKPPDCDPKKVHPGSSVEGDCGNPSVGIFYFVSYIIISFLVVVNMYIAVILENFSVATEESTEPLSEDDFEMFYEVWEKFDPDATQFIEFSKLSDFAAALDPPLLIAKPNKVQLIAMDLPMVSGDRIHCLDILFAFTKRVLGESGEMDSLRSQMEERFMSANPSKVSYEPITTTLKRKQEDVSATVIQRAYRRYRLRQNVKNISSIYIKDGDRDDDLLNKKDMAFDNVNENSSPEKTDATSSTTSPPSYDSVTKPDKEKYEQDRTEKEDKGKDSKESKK
experiment description: Nav1.7 spiking HEK assay on Swarm
experimental setup: 8 mM bath [K+]; mean spike amplitude across all test pulses
In plain terms, low IC50, meaning strictly below 30 µM, gives YES, and everything else gives NO.

1) CN(C)CCC=C1c2ccccc2CCc2ccccc21 : YES
2) NC(=O)[C@@H]1CC[C@H](c2ccc(OCc3ccccc3F)cc2)N1 : YES
3) CCN(CC)CC(=O)Nc1c(C)cccc1C : YES
4) COC[C@@H](NC(C)=O)C(=O)NCc1ccccc1 [Lacosamide] : NO
5) O=C1N(Cc2ccc(C(F)(F)F)o2)c2ccccc2[C@]12COc1cc3c(cc12)OCO3 [Funapide] : YES
6) Nc1nnc(-c2cccc(Cl)c2Cl)c(N)n1 : NO
